- procedure details: Human HepG2 cell viability assay in 384 well format
- Format: toxicity, cell-based
- Parameters: dose 125 nL, time 70.5 hour; concentration not given beside the values
- particulars: HepG2 cells, read-out: Inhibition
// values below are reported cytotoxicity at 70.5 h
State the value, then name its unit.

Some entries whose results are on file:
molecule	cytotoxicity at 70.5 h
Cc1c(CN2CCC(C(=O)O)(n3ccnc3)CC2)oc2ccccc12	-7.33%
COCCN1CCCC2(CCC(=O)N2Cc2cccnc2)C1 (stereo unspecified)	28.9%
Cc1cc(C)nc(N2CCC(c3nnc(CN(C)C)n3C3CC3)CC2)n1	-5.18%
CC(C)[C@]1(O)CN(C(=O)COCC(N)=O)C[C@H]1C	23.2%
Cc1ccnc(C(NC(=O)c2ccc(O)nc2C)C2CC2)n1 (stereo unspecified)	16.3%
Cc1nc(C)c(CN(C)C2CCN(C(=O)OC(C)(C)C)CC2)s1	-7.19%

Find the recorded cytotoxicity at 70.5 h belonging to CS(=O)(=O)N1CCO[C@@H]2CN(C(=O)COC3CCCC3)C[C@@H]2C1 and report it.
7.96%

Find the recorded cytotoxicity at 70.5 h belonging to Cc1ncc(CC(=O)N2CCCC(COc3ccc(F)cc3)C2)c(=O)[nH]1 (stereo unspecified) and report it.
2.89%

Find the recorded cytotoxicity at 70.5 h belonging to CC(C)N1CC(C(=O)NCCOc2ccc3c(c2)OCO3)CC1=O (stereo unspecified) and report it.
1.18%

Find the recorded cytotoxicity at 70.5 h belonging to CCCN1CCN(C(=O)c2cccc(C)n2)[C@H]2CS(=O)(=O)C[C@H]21 and report it.
14.2%

Find the recorded cytotoxicity at 70.5 h belonging to Cc1cnn(CC(C)NCC(=O)Nc2ccc(Cl)cn2)c1 (stereo unspecified) and report it.
-2.39%

----------
- procedure details: Human HepG2 cell viability assay in 384 well format
- Type: toxicity, cell-based
- Set-up: dose 125 nL, time 70.5 hour; concentration not given beside the values
- particulars: HepG2 cells, read-out: Inhibition
reported property: cytotoxicity at 70.5 h (%)
Hi! Could you send only the number? It should be in %, unit omitted.

Some entries whose results are on file:
compound	obs value
CNc1cc(N2CCCC2CNCc2ccccn2)ncn1 (stereo unspecified)	14.8
O=C(c1cnccn1)N1CCC2(CC1)CC(Oc1ccccc1)CO2 (stereo unspecified)	25.9
CN(C)C(=O)CN1CCC2(CC1)COC2	-5.41
CCc1cc(N2CCS(=O)(=O)CC2)n2nc(C)c(C)c2n1	-5.71
Cc1cnc(N2C[C@H]3CCN(CC4CC4)C[C@H]3C2)nc1	9.39

Now consider the entry below.
Find the recorded cytotoxicity at 70.5 h belonging to CNC(=O)[C@@H]1CCO[C@@H]2CCN(Cc3ccsc3)C[C@H]21 and report it.
-14

----------
// values below are reported cytotoxicity at 70.5 h
- procedure details: Human HepG2 cell viability assay in 384 well format
- Type: toxicity, cell-based
- Set-up: dose 125 nL, time 70.5 hour; concentration not given beside the values
- particulars: HepG2 cells, read-out: Inhibition
Hi! Could you send only the number? It should be in %, unit omitted.

Some entries whose results are on file:
compound	cytotoxicity at 70.5 h (%)
O=C(NCc1ccco1)[C@H]1C[C@@H]2CCN(c3nncs3)C[C@H]2O1	-9.42
Cc1ccc(C(=O)NCCC2CCN(C)CC2)cc1N(C)S(C)(=O)=O	24
O=C(Nc1cccn(CC(F)(F)F)c1=O)c1ccncc1F	-11.6
O=C(c1ccncc1)N1C[C@@H](OCc2cccnc2)[C@H]2OCCC[C@H]21	-10.2
Cc1cc(C)n(Cc2cc(C(=O)N3CCCC3c3ccccn3)n[nH]2)n1 (configuration not stated)	-17.2

Find the recorded cytotoxicity at 70.5 h belonging to CC(C)c1cc(CN(C)C(=O)CN2CCNC2=O)no1 and report it.
18.6

Find the recorded cytotoxicity at 70.5 h belonging to CC(Cn1ccnc1)NC(=O)NCCc1ccccn1 (configuration not stated) and report it.
-0.19

Find the recorded cytotoxicity at 70.5 h belonging to CN(C)S(=O)(=O)c1ccc(CN2CCC(c3ccccc3)C2)o1 (configuration not stated) and report it.
4.6

Find the recorded cytotoxicity at 70.5 h belonging to CC(C)c1nccn1C1CCCN(C(=O)CCCc2ccccn2)C1 (configuration not stated) and report it.
-10.5

Find the recorded cytotoxicity at 70.5 h belonging to FC(F)(F)c1ccnc(N2C[C@H]3CCN(c4cccnc4)C[C@H]3C2)n1 and report it.
-17.5

Find the recorded cytotoxicity at 70.5 h belonging to Cc1cc(C(=O)N2CCC(n3cc(CO)nn3)CC2)ccc1F and report it.
-5.39

Find the recorded cytotoxicity at 70.5 h belonging to CCc1noc(CN(CC(=O)N2CCCCC2)c2ccc(C)cc2)n1 and report it.
-1.63

Find the recorded cytotoxicity at 70.5 h belonging to Cc1nc(N2CCCC2)nc2c1CN(C(=O)NC(C)C)CC2 and report it.
-3.45

Find the recorded cytotoxicity at 70.5 h belonging to Cc1cnn(CC2CCCN2Cc2coc(-c3cccs3)n2)c1 (configuration not stated) and report it.
-0.977

Find the recorded cytotoxicity at 70.5 h belonging to COc1ccccc1OCC(=O)NS(=O)(=O)c1ccc(Cl)s1 and report it.
-2.89

Find the recorded cytotoxicity at 70.5 h belonging to Cc1ccc(-c2nc(C(=O)N3CCN(C(=O)N(C)C)CC3)cs2)c(C)c1 and report it.
-9.21

Find the recorded cytotoxicity at 70.5 h belonging to COc1ccc(C(CNC(=O)c2c(C)noc2C)N(C)C)cc1 (configuration not stated) and report it.
21.1

Find the recorded cytotoxicity at 70.5 h belonging to C[C@@H]1C[C@@H]2CCN(Cc3ccncc3)C[C@H]2O1 and report it.
-3.23

----------
- procedure details: Human HepG2 cell viability assay in 384 well format
- Type: toxicity, cell-based
- Set-up: dose 125 nL, time 70.5 hour; concentration not given beside the values
- particulars: HepG2 cells, read-out: Inhibition
// values below are reported cytotoxicity at 70.5 h
Hi! Could you send only the number? It should be in %, unit omitted.

compound	value unit	obs value
Cc1noc(CCCC(=O)N2CCCCC2CNS(C)(=O)=O)n1 (centres undefined)	%	-9.36
CC(C)n1ccnc1C1CCN(C(=O)c2cc[nH]n2)CC1	%	-10.9
CCC(CC)c1cc(CNC(=O)N2CCC(n3cncn3)CC2)on1	%	-1.7
c1cncc(C[C@H]2[C@H](N3CCOCC3)CCN2Cc2cccs2)c1	%	-5.01
CCC(=O)N1CCN(C(=O)c2ccc(OC)o2)[C@H]2CS(=O)(=O)C[C@H]21	%	-4.25
CC(C)c1nc2n(n1)CC(Nc1ncnc3c1CCC3)CC2 (centres undefined)	%	-13.9

Find the recorded cytotoxicity at 70.5 h belonging to CCN(Cc1noc(C2CC2)n1)Cc1ccc(C#N)cc1F and report it.
1.6

Find the recorded cytotoxicity at 70.5 h belonging to CC(C)N1CCC2(CC1)NC(=O)c1cc(Br)ccc1-n1nnnc12 and report it.
-4.14

Find the recorded cytotoxicity at 70.5 h belonging to Fc1cc(CNCc2ccc3c(c2)CCO3)ccc1N1CCOCC1 and report it.
-6.5

Find the recorded cytotoxicity at 70.5 h belonging to CC(C)N(CC(C)(C)O)C(=O)NC1CC1 and report it.
20.8

Find the recorded cytotoxicity at 70.5 h belonging to O=C(c1cccc(F)c1)N1CCC2(CC1)CN(c1ccccn1)CCO2 and report it.
-8.22

Find the recorded cytotoxicity at 70.5 h belonging to CC(O)CN1CCN(C(=O)c2ccc(CN(C)C)cc2)CC1 (centres undefined) and report it.
-0.592

Find the recorded cytotoxicity at 70.5 h belonging to CCOCCNC1(c2ccc(Cl)cc2)CCOCC1 and report it.
9.63

Find the recorded cytotoxicity at 70.5 h belonging to O=C(c1ccoc1)N1CCC(NCc2cccnc2)CC1 and report it.
4.06

Find the recorded cytotoxicity at 70.5 h belonging to Cc1ncc(CN(C)Cn2nc(-c3ccccc3)oc2=O)s1 and report it.
-13.1

Find the recorded cytotoxicity at 70.5 h belonging to COCCN1CCC(NCc2cccc(F)c2)C1 (centres undefined) and report it.
26.3

Find the recorded cytotoxicity at 70.5 h belonging to CC[S+](CC)[c-]1c(=O)[nH]c(=O)n(Cc2ccc(F)cc2)c1=O and report it.
3.21

Find the recorded cytotoxicity at 70.5 h belonging to CCN1CCN(C(=O)c2cnc3c(cnn3C3CCCC3)c2)CC1 and report it.
-6.55

Find the recorded cytotoxicity at 70.5 h belonging to O=C(c1cc(Cl)c2c(c1)OCCO2)N1CCCC(n2cncn2)C1 (centres undefined) and report it.
-10.2

Find the recorded cytotoxicity at 70.5 h belonging to Cc1cnn(CC2CN(Cc3ccccn3)CCO2)c1 (centres undefined) and report it.
-5.81

Find the recorded cytotoxicity at 70.5 h belonging to Cc1ccc(C(F)(F)F)cc1NCC(=O)Nc1c(C)nn(C)c1C and report it.
11.3

Find the recorded cytotoxicity at 70.5 h belonging to Cc1nc(CNCC2CCCN2c2cccnn2)no1 (centres undefined) and report it.
-1.22
